Consider the following compounds; for each one, report its IC50.
# Tested on: BaF3/K-Ras(G12D) cells
# assay.comment: Growth inhibition of BaF3/K-Ras(G12D) cells
# Assay type: cell-based, murine
# cond: Mus musculus, read-out: IC50, growth of BaF3/K-Ras(G12D) cells
Answers are plain numbers, in nM.

compound	IC50 (nM)
C#Cc1c(F)ccc2cc(O)cc(-c3ncc4c(N5C[C@H]6CC[C@@H](C5)N6C(=O)[C@@H]5OC(=O)C5(C)C)nc(OC[C@@]56CCCN5C[C@H](F)C6)nc4c3F)c12 [(R)-7]	73

Let us examine a further case.
Req: Identify measured IC50 associated with CC(C)[C@@H]1C(=O)O[C@H]1C(=O)N1[C@@H]2CC[C@H]1CN(c1nc(OCC34CCCN3CCC4)nc3c(F)c(-c4cccc5cccc(Cl)c45)ncc13)C2 [Compound 4]
Resp: 71
